# System: P. falciparum stage V gametocytes
# Parameters: BacTiter-Glo ATP luminescence viability of purified stage V gametocytes in 384-well plates, per cent inhibition versus DMSO
# SETTINGS: 48 h, 5 µM; inhibitor
The whole screen tested about 13,000 compounds, of which about 3,200 (25%) showed an effect of 50% or more. The list shows a part of the results.
MEASURED_METRIC: % Inhibition (%)
# output: bare number, implied unit %

Would you please look over these solved cases?
SMILES_TEXT: COc1cc(-n2cnc3cc(-c4ccc([N+](=O)[O-])cc4)sc3c2=O)ccc1OCCN1CCCC1
% Inhibition / %: 104.9
//
SMILES_TEXT: CN(CCN1CCCC1)c1nc2ccc(-n3cnc4cc(-c5ccc(Cl)cc5)sc4c3=O)cc2[nH]1
% Inhibition / %: 5.034

Qu. Consider the compound shown here: `CC(C)(CNC(=O)C1CCN(CCOc2ccc(Cl)cc2)CC1)c1nc(-c2ccc(Cl)c(O)c2)c(-c2ccncc2)[nH]1` What is its recorded % Inhibition?
Ans. -30.29

Qu. Moving on to the next compound: `CCN(C)CCCn1c(N(C)C)nc2cc(-n3cnc4cc(-c5ccc(Cl)cc5)sc4c3=O)ccc21`
Ans. -50.75

Qu. Moving on to the next compound: `Cc1sc2ncnc(Sc3nnc(N)s3)c2c1C`
Ans. 96.33

Qu. // next record `Cc1ccc(-c2ccc(NC(=O)N3CCc4cc(Br)c(N5CCN(C)CC5)cc43)cc2)cn1`
Ans. -24.43

Qu. For `CCc1cc2c(Sc3nnc(N)s3)ncnc2s1` then?
Ans. 80.67

Qu. Would you mind doing `CN(C)c1nc2cc(-n3cnc4cc(-c5ccc(Cl)cc5)sc4c3=O)ccc2n1CCCN1CCCCC1` as well?
Ans. 34.32

* * *

# Tested on: P. falciparum stage V gametocytes
# Set-up: BacTiter-Glo ATP luminescence viability of purified stage V gametocytes in 384-well plates, per cent inhibition versus DMSO
# SETTINGS: 48 h, 5 µM; inhibitor
Screen size: about 13,000 compounds; about 3,200 (25%) showed an effect of 50% or more. The list shows a part of the results.
MEASURED_METRIC: % Inhibition (%)
Value expressed in %; do not type the unit.

Qu. Give the measured % Inhibition of `CCCC(=O)Nc1ccc(Cl)c(NC(=O)COc2cc(C)ccc2C(C)C)c1` .
Ans. -6.515

Qu. How about Cc1cccc(CC2CC(=O)N(c3ccc([N+](=O)[O-])cc3)C2=O)c1 (stereo not drawn) ?
Ans. -3.627

Qu. Further, for `CN(C)CCN(Cc1ccccc1)c1ccc([N+](=O)[O-])cc1C(F)(F)F` ?
Ans. 16.64

Qu. Then this molecule: `N#Cc1ccccc1C(=O)N(Cc1cncn1Cc1cccc(F)c1)CC1CC1`
Ans. -1.299

Qu. Follow-up item: `COc1ccc(CCNC(=O)c2cnc3c(c2)nc(-c2cnc(-c4ccccc4)[nH]2)n3CCc2cnc[nH]2)cc1`
Ans. -21.36

Qu. Similarly, Cc1ccccc1NC(=O)C1CSCN1C(=O)OCc1ccccc1 (stereo not drawn) ?
Ans. -21.88

Qu. Now try `CCCCCCCCn1ccc(=N)cc1` .
Ans. 13.04

Qu. Follow-up item: `O=C(NC1CC1)c1ccc(Cn2c(SCc3cccc([N+](=O)[O-])c3)nc3ccccc3c2=O)cc1`
Ans. 43.52

Qu. Same again, this time with `CCN(CCNC(=O)Cn1c(C)cc2cc([N+](=O)[O-])ccc21)c1cccc(C)c1`
Ans. 1.649

* * *

# Test system: P. falciparum stage V gametocytes
# Parameters: BacTiter-Glo ATP luminescence viability of purified stage V gametocytes in 384-well plates, per cent inhibition versus DMSO
# SETTINGS: 48 h, 5 µM; inhibitor
Out of some 13,000 compounds screened, about 3,200 (25%) showed an effect of 50% or more. The list shows a part of the results.
% Inhibition values for the compounds below.
Please state the figure in %; there is no need to write the unit.

Below, 5 compounds whose answers are already recorded.
COMPOUND: O=C(/C=C/c1ccc(Cl)c(Cl)c1)NCCCCCN1CCC(NC(=O)Nc2ccc(Cl)cc2Cl)CC1
% Inhibition (%): -21.32
//
COMPOUND: CN1CCCC1CCNc1ncc2c(-c3ccc(NC(=O)Nc4cc(C(F)(F)F)ccc4F)c(F)c3)nn(C)c2n1 (stereo not drawn)
% Inhibition (%): 99.17
//
COMPOUND: Cc1ccc2[nH]c(-c3ccc(C(=O)NC4CCN(Cc5ccccc5)CC4)cc3)nc2c1C
% Inhibition (%): 4.358
//
COMPOUND: O=C(Nc1ccc(Cl)c(Cl)c1)N(Cc1ccccc1Br)C1CCNCC1
% Inhibition (%): 32.46
//
COMPOUND: Cc1nc(-c2ccc(-c3ccc(C(=O)Nc4ccc5c(c4)C4(CCNCC4)CO5)cc3)c(C)c2)no1
% Inhibition (%): 45.43

Qu. Would you kindly share the measured % Inhibition for CN1CCCC1CCNc1ncc2c(-c3ccc(NC(=O)Nc4cc(C(F)(F)F)ccc4F)cc3)nn(C)c2n1 (stereo not drawn) ?
Ans. 59.4

Qu. // same read-out, input: `Nc1nc2ccc(S(=O)(=O)Nc3ccc(C(=O)N[C@@H](CCC(=O)O)C(=O)O)c(F)c3)cc2c(=O)[nH]1`
Ans. 7.521

Qu. // query: CC(=O)c1ccc2c(c1)C(NC(=O)c1cccc(Cl)c1Cl)C(CO)C(C)(C)O2 (stereo not drawn)
Ans. -12.37

Qu. Same thing, different compound: CC(O)C1CCCCN1C(=O)c1cccc(-c2cccc(-c3nc4cc(C(F)(F)F)ccc4[nH]3)c2)c1 (stereo not drawn)
Ans. 13.24

Qu. // query: `Oc1c(Br)cc2oc3c(c2c1CNCc1ccccc1)CCCC3`
Ans. 19.71

Qu. Try this compound too: `Cc1cn(CC(=O)Nc2cccc(-c3cccc(-c4nc5c(C)cccc5[nH]4)c3)c2)c(=O)[nH]c1=O`
Ans. -3.611

Qu. Proceed to `CCCc1cc(C(=O)N[C@@H](Cc2ccccc2)[C@H](O)CNC(C)(C)c2cccc(OC)c2)c(F)c(N2CCCC2=O)c1`
Ans. 48.39

Qu. Now give it for CC(NCCC1CCC(NC(=O)N[C@H](C)C(O)(c2ccccc2)c2ccccc2)CC1)c1cccc2ccccc12 (stereo partly drawn) too.
Ans. 64.1

Qu. Follow-up entry: CC(=O)c1ccc2c(c1)CCN(CCC1CCC(NC(=O)c3cc4ccccc4[nH]3)CC1)CC2 (stereo not drawn)
Ans. -25.73

Qu. Entry `OCCc1ccc(Nc2nccc(-c3nnc4ccccn34)n2)cc1` please
Ans. -13.1

* * *

# Test system: P. falciparum stage V gametocytes
# Set-up: BacTiter-Glo ATP luminescence viability of purified stage V gametocytes in 384-well plates, per cent inhibition versus DMSO
# SETTINGS: 48 h, 5 µM; inhibitor
In all, about 13,000 compounds went through this assay and about 3,200 (25%) showed an effect of 50% or more. The list shows a part of the results.
MEASURED_METRIC: % Inhibition (%)
The figure you give is taken to be in %; do not add the unit.

The cases that follow already have their % Inhibition on record.
COMPOUND: CCOCCCn1c(=N)c(C(=O)NC(C)c2ccccc2)cc2c(=O)n3cccc(C)c3nc21 (stereo not shown) [TCMDC-124348]
UNIT_LABEL: %
% Inhibition: 9.74

COMPOUND: NC1CCN(Cc2ccc(-c3ccc(-c4nc5ccccc5[nH]4)cc3)cc2)C1.O=C(O)C(F)(F)F (stereo not shown) [TCMDC-133868]
UNIT_LABEL: %
% Inhibition: 102.2

COMPOUND: Cc1cc(C(=O)Nc2ccc(-c3nc4ccccc4[nH]3)cc2)ccc1[N+](=O)[O-] [TCMDC-123604]
UNIT_LABEL: %
% Inhibition: 62.44

COMPOUND: CCOc1ccc(C(=O)Nc2ccc(-c3nc4ccccc4[nH]3)cc2)cc1[N+](=O)[O-] [TCMDC-125221]
UNIT_LABEL: %
% Inhibition: -12.2

COMPOUND: CC(C)C[C@@H](/C=N/N1CCOC1=O)NC(=O)[C@H](CC(C)C)NC(=O)c1ccc(OCCN2CCOCC2)cc1 [TCMDC-136170]
UNIT_LABEL: %
% Inhibition: -12.99

COMPOUND: O=C(Nc1ccc(-c2nc3ccccc3[nH]2)cc1)c1ccc(Cl)c([N+](=O)[O-])c1 [TCMDC-125730]
UNIT_LABEL: %
% Inhibition: 2.294

Qu. I am curious: what % Inhibition value has been reported for C=C(C)C1CC=C(CN2CCCC(n3ccc4cc(NC(=O)c5ccco5)ccc43)CC2)CC1 (stereo not shown) [TCMDC-135090] ?
Ans. -20.08

* * *

# Test system: P. falciparum stage V gametocytes
# Parameters: BacTiter-Glo ATP luminescence viability of purified stage V gametocytes in 384-well plates, per cent inhibition versus DMSO
# SETTINGS: 48 h, 5 µM; inhibitor
Among all 13,000 compounds or so, about 3,200 (25%) showed an effect of 50% or more. This is one part of the list.
MEASURED_METRIC: % Inhibition (%)
Unit % implied. Number only.

MOLECULE: O=C(C=Cc1ccc(-c2nc3ccccc3[nH]2)cc1)NC1CCN(Cc2ccccc2)CC1 [TCMDC-140400]
TARGET_UNDER_TEST: P. falciparum stage V gametocytes
% Inhibition, %: -89.03
//
MOLECULE: Cc1cc2nc(-c3ccc(/C=C/C(=O)NC4CCCCC4)cc3)[nH]c2cc1C [TCMDC-140435]
TARGET_UNDER_TEST: P. falciparum stage V gametocytes
% Inhibition, %: -5.542

Qu. Using the record for COc1ccc(C2(CNCC(O)c3cccc([N+](=O)[O-])c3)CCCCC2)cc1OC (centres unmarked) [TCMDC-125753] , report its % Inhibition.
Ans. 32.79

Qu. Consider next the molecule CC(=O)Oc1c(Cl)c(C)nc(C)c1-c1ccc(Oc2ccc(Cl)cc2)cc1 [TCMDC-137381] in the same way.
Ans. 75.31

Qu. Could you do the same for Cc1nc(N)nc(N)c1-c1ccc(Cl)cc1 [TCMDC-138984] , please?
Ans. -0.9845

Qu. Can you handle COC(=O)c1ccc2nc(-c3cc(OC)c(O)c(C(=O)NC4CCN(Cc5ccccc5)CC4)c3)[nH]c2c1 [TCMDC-140427] next?
Ans. 6.107

Qu. // same read-out, input: COC(=O)c1ccc2nc(-c3ccc(C(=O)NC4CCN(Cc5ccccc5)CC4)s3)[nH]c2c1 [TCMDC-140426]
Ans. -65.59

Qu. What about this molecule? CC(C)(C)c1ccc2nc(-c3ccc(/C=C/C(=O)NC4CCN(Cc5ccccc5)CC4)cc3)[nH]c2c1 [TCMDC-140456]
Ans. 48.62
